This listing pairs compounds with measured inhibition of SARS-CoV-2 cytopathic effect.
system: Vero E6 infected with SARS-CoV-2; experiment: inhibition of SARS-CoV-2 cytopathic effect; higher = more antiviral protection, active = above 15; conditions: 100 nM; 48 h
measurement_kind: inhibition of SARS-CoV-2 cytopathic effect (%)

{"columns": ["compound", "experimental_result"],
 "data": [
  ["Cc1cccc(C)c1NC1=NCCCS1 [xylazine]", 1.06],
  ["O=S(=O)(O)Oc1ccc(C(c2ccc(OS(=O)(=O)O)cc2)c2ccccn2)cc1 [sodium-picosulfate]", 0.34],
  ["CN1Cc2c(N)cccc2C(c2ccccc2)C1 (stereo not drawn) [nomifensine]", 2.41],
  ["CC/C(=C(/c1ccc(/C=C/C(=O)O)cc1)c1ccc2[nH]ncc2c1)c1ccc(F)cc1Cl", -1.84],
  ["Cc1noc(NS(=O)(=O)c2cccc3c(N(C)C)cccc23)c1C", 0.03],
  ["CN1CCCN=C1COC(=O)C(O)(c1ccccc1)C1CCCCC1 (stereo not drawn) [oxyphencyclimine]", 0.28],
  ["Nc1ccc(S(=O)(=O)Nc2ccc(Cl)nn2)cc1 [sulfachlorpyridazine]", 1.77],
  ["CC(=O)N1CC[N+](C)(C)CC1 [4-acetyl-1,1-dimethylpiperazinium]", 0.82],
  ["COC(=O)C1=CO[C@@H](O)[C@@H]2C(CO)=CC[C@H]12 [genipin]", 0.94],
  ["C[C@H](NC(=O)C(C)(C)Oc1ccc(C(F)(F)F)cn1)[C@@H](Cc1ccc(Cl)cc1)c1cccc(C#N)c1 [taranabant]", -2.11],
  ["O=P1(N(CCCl)CCCl)NCCCO1 (stereo not drawn) [cyclophosphamide]", -0.35],
  ["Nc1ncnc2c1ncn2CCOCP(=O)(O)O [adefovir]", 2.27],
  ["CCCSc1nc(N[C@@H]2C[C@H]2c2ccc(F)c(F)c2)c2nnn([C@@H]3C[C@H](OCCO)[C@@H](O)[C@H]3O)c2n1 [ticagrelor]", -0.46],
  ["CN1C[C@@H]2C[C@H]1CN2c1cc2c(cc1F)c(=O)c(C(=O)O)cn2C1CC1 [danofloxacin]", 0.43],
  ["COc1cc2c(Oc3ccc(NC(=O)C4(C(=O)Nc5ccc(F)cc5)CC4)cc3F)ccnc2cc1OCCCN1CCOCC1 [foretinib]", 2.06],
  ["CCCCCCCCNC(C)C(O)c1ccc(SC(C)C)cc1 (stereo not drawn) [suloctidil]", -0.38],
  ["Cc1ccc(Oc2ccccc2-c2csc(N=C3NCCCN3)n2)c(C)c1 [abafungin]", 1.28],
  ["FC(F)(F)c1cc(NC(=S)Nc2ccc(Br)cc2-c2nnn[nH]2)cc(C(F)(F)F)c1", -1.11]
]}

====

tested on: Vero E6 infected with SARS-CoV-2; test: inhibition of SARS-CoV-2 cytopathic effect; higher = more antiviral protection, active = above 15; settings: 1 nM; 48 h
Where a name gives a salt, the structure may show the parent alone.
measurement_kind: inhibition of SARS-CoV-2 cytopathic effect (%)

{"columns": ["compound", "experimental_result"],
 "data": [
  ["C[C@H](N)C(=O)N[C@@]1(C(=O)O)C[C@@H](Sc2nnc[nH]2)[C@H]2[C@H](C(=O)O)[C@H]21", -2.66],
  ["Fc1ccc([C@@H]2CCNC[C@H]2COc2ccc3c(c2)OCO3)cc1", -4.2],
  ["C=CC(=O)Nc1cccc(Nc2nc(Nc3ccc(N4CCN(C(C)=O)CC4)cc3OC)ncc2C(F)(F)F)c1", -0.09],
  ["CCOC(=O)[C@@](C)(N)Cc1ccc(O)c(O)c1 [methyldopate]", 6.97],
  ["CC[N+](CC)(CC)CCOc1ccc(/C=C/c2ccccc2)cc1", -0.65],
  ["O=C(O)CCNC(=O)c1ccccc1", -2.23],
  ["CCCc1nn(C)c2c(=O)[nH]c(-c3cc(S(=O)(=O)N4CCN(C)CC4)ccc3OCC)nc12", 2.67],
  ["CC(C)OC(=O)C(C)(C)Oc1ccc(C(=O)c2ccc(Cl)cc2)cc1 [fenofibrate]", 4.02],
  ["O=C(O)CCN(O)C(=O)CCCCCCCCC1CC1", 2.3],
  ["O=C(O)CCC(=O)Nc1ccc(S(=O)(=O)Nc2nccs2)cc1", -0.25],
  ["Cc1cc(I)ccc1Nc1c(C(=O)NOCC2CC2)cc(F)c(F)c1F", 0.41],
  ["CCOC(=O)NNc1nncc2ccccc12", 2.18],
  ["O=C1NC(c2ccccc2)(c2ccccc2)C(=O)N1COP(=O)(O)O", 2.33],
  ["CN(C)CCn1cc(S(=O)(=O)c2cccc(F)c2)c2cccnc21", 5.3],
  ["N=C(N)NCCC[C@H](NC(=O)[C@@H]1CCCN1C(=O)[C@@H]1CSSC[C@H](N)C(=O)N[C@@H](Cc2ccc(O)cc2)C(=O)N[C@@H](Cc2ccccc2)C(=O)N[C@@H](CCC(N)=O)C(=O)N[C@@H](CC(N)=O)C(=O)N1)C(=O)NCC(N)=O", 3.02],
  ["COC(=O)Nc1nc2cc(C(=O)c3ccccc3)ccc2[nH]1", -1.33],
  ["CNc1ccc([N+](=O)[O-])cc1-n1cnc(-c2ccc(C(F)(F)F)cc2)c1", 1.34],
  ["Cc1c(C)c2c(c(C)c1O)CCC(C)(C(=O)O)O2 (stereo not given)", 4.59],
  ["CCC1NC(=O)c2cc(S(N)(=O)=O)c(Cl)cc2N1 (stereo not given)", -8.29],
  ["CCc1cccc2c3c([nH]c12)C(CC)(CC(=O)O)OCC3 (stereo not given)", -3.24],
  ["CCCCCCCCCC(=O)OCCN1CCN(CCCN2c3ccccc3Sc3ccc(C(F)(F)F)cc32)CC1 [fluphenazine-decanoate]", -6.37],
  ["CCCn1c(=O)[nH]c2nc(-c3ccc(S(=O)(=O)N4CCN(c5ccc(Cl)cc5)CC4)cc3)[nH]c2c1=O", -0.12],
  ["Cc1cc(-c2ccccc2)nnc1NCCN1CCOCC1", 0.27],
  ["CC(C)c1nnc(-c2ccc(-c3ccccc3)nc2)n1-c1cccc2nonc12", -5.81],
  ["CN[C@@H]1[C@H](O[C@H]2[C@H](O[C@H]3[C@H](O)[C@@H](O)[C@H](N=C(N)N)[C@@H](O)[C@@H]3N=C(N)N)O[C@@H](C)[C@]2(O)C=O)O[C@@H](CO)[C@H](O)[C@H]1O [STREPTOMYCIN SULFATE [5mM; 10% aq DMSO + 5mM ethanolamine]]", -0.46]
]}

====

system: Vero E6 infected with SARS-CoV-2; assay: inhibition of SARS-CoV-2 cytopathic effect; higher = more antiviral protection, active = above 15; details: 10000 nM; 48 h
Outcomes: 1 (yes) = active, 0 (no) = inactive

{"columns": ["molecule", "label_value"],
 "data": [
  ["C[C@@H](O)[C@H]1C(=O)N2C(C(=O)O)=C(S[C@@H]3CN[C@H](C(=O)Nc4cccc(C(=O)O)c4)C3)[C@H](C)[C@H]12", "0 (no)"],
  ["C=CC(=O)O [acrylate]", "0 (no)"],
  ["C/C=C1\\NC(=O)[C@H]2CSSCC/C=C/[C@H](CC(=O)N[C@H](C(C)C)C(=O)N2)OC(=O)[C@H](C(C)C)NC1=O", "0 (no)"],
  ["Cc1nnc(C(=O)NC(C)(C)c2nc(C(=O)NCc3ccc(F)cc3)c(O)c(=O)n2C)o1", "0 (no)"],
  ["CC(C)n1c(=O)n(C(=O)N[C@H]2C[C@H]3CC[C@@H](C2)N3C)c2ccccc21", "0 (no)"],
  ["O=C(NCc1ccncc1)C12CC3CC(C1)CC(c1ccc(Cl)cc1)(C3)C2", "0 (no)"],
  ["CCN1CCN(C(=O)N[C@@H](C(=O)N[C@@H]2C(=O)N3C(C(=O)O)=C(CSc4nnnn4C)CS[C@H]23)c2ccc(O)cc2)C(=O)C1=O", "0 (no)"],
  ["OCCn1cc(-c2ccc3c(c2)CC/C3=N\\O)c(-c2ccncc2)n1", "0 (no)"],
  ["CC(=O)OCC(=O)[C@@]1(O)[C@@H](C)C[C@H]2[C@@H]3CCC4=CC(=O)C=C[C@]4(C)[C@@]3(F)[C@@H](O)C[C@@]21C [betamethasone-acetate]", "0 (no)"],
  ["Cc1[nH]c(/C=C2\\C(=O)Nc3ccc(S(=O)(=O)Cc4c(Cl)cccc4Cl)cc32)c(C)c1C(=O)N1CCC[C@@H]1CN1CCCC1", "1 (yes)"],
  ["O=C(Nc1cnc(Cl)nc1)c1ccc(F)c(F)c1", "0 (no)"],
  ["Cn1cc(C(=O)C(=O)N[C@H]2CN3CCC2CC3)c2ccccc21", "0 (no)"],
  ["O=C(Cc1cccc(OC(F)(F)F)c1)Nc1ccc(CCCCc2nnc(NC(=O)Cc3ccccn3)s2)nn1", "0 (no)"],
  ["O=[N+]([O-])C(Br)(CO)CO", "0 (no)"],
  ["CC(C)CC(=O)Nc1n[nH]c2c1CN(C(=O)C1CCN(C)CC1)C2(C)C", "0 (no)"],
  ["CC(C)=CCc1c(O)cc(O)c2c(=O)c(O)c(-c3ccc(C(F)(F)F)cc3)oc12", "0 (no)"],
  ["Cc1cc(SCc2sc(-c3ccc(C(F)(F)F)c(F)c3)nc2C)ccc1OCC(=O)O", "0 (no)"],
  ["CCNCc1cc(C(C)(C)C)c(O)c(C(C)(C)C)c1", "0 (no)"],
  ["O=C(COc1ccc(Cl)cc1)N[C@H]1CC[C@H](NC(=O)COc2ccc(Cl)cc2)CC1", "1 (yes)"],
  ["C[C@@H](c1ccc2nccn2c1)n1nnc2ncc(-c3cnn(C)c3)nc21", "0 (no)"],
  ["CCCCCCCCCCCCCCCCCCCCCC(=O)O", "0 (no)"],
  ["COC(=O)Nc1nc2cc(C(=O)c3cccs3)ccc2[nH]1", "0 (no)"],
  ["Cc1ccc2c(c1)[C@]13CCCC[C@@H]1[C@H](C2)N(C)CC3", "0 (no)"],
  ["C#CC[C@H](c1nc2cc(Cl)ccc2c(=O)n1Nc1ccccc1)N(CCCN)C(=O)c1cccc(Cl)c1F", "0 (no)"],
  ["CC1CCN(CC[C@H]2CCCN2S(=O)(=O)c2cccc(O)c2)CC1", "0 (no)"],
  ["Nc1ccc([As](=O)(O)O)cc1", "0 (no)"],
  ["Clc1ccc2c(N3CCN(CCCN4CCN(c5ccnc6cc(Cl)ccc56)CC4)CC3)ccnc2c1 [piperaquine-phosphate]", "0 (no)"],
  ["NC[C@H](O)c1ccc(O)c(O)c1 [norepinephrine]", "0 (no)"],
  ["O=C1C=C2C=C[C@@H]3C[C@@]2(O1)[C@H]1CCCCN31", "1 (yes)"],
  ["CC/C(=C(\\c1ccc(O)cc1)c1ccc(OCCN(C)C)cc1)c1ccccc1", "1 (yes)"]
]}

The origin of these recorded values is the supplement of paper PMC13380429.
